# systemTested: T1, human CD71 extracellular domain (human, UniProt P02786 89-760)
# T1 construct: also called hCD71; human CD71-ECD
# T1 sequence (P02786 89-760): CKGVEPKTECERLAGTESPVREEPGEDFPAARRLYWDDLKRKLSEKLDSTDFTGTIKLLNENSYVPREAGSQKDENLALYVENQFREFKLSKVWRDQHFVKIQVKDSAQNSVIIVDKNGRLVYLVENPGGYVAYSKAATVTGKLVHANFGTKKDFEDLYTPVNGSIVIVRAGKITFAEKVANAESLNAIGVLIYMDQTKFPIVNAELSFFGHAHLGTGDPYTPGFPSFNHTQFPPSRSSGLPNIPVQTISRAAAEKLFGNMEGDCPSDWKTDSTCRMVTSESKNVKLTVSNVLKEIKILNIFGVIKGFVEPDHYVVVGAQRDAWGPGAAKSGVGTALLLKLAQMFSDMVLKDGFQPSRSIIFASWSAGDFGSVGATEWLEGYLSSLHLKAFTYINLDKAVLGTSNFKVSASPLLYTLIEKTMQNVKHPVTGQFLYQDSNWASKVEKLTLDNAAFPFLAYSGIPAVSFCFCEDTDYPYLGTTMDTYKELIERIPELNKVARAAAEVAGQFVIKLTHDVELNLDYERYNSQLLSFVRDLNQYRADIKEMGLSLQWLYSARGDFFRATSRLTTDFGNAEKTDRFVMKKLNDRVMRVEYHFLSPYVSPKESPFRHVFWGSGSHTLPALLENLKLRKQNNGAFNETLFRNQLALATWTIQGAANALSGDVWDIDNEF
# assayName: primary ELISA; note: test concentration or dose not given here
readoutType: RLU (RLU)

Check out these entries, answers already filled in.
CD71-binding FN3 domain of SEQ ID NO: 197 (designed binder) MSLPAPKNLVVSRVTEDSARLSWTAPDAAFDSFFIGYLEPQPPGEAISLLVPGSERSYDLTGLKPGTEYNVTIQGVKGGFPSEPLHAIFTT: 3.4e+06
CD71-binding FN3 domain of SEQ ID NO: 184 (designed binder) MSLPAPKNLVVSRVTEDSARPSWTAPDAAFDSFEIAYFERTWFGEAIVLTVPGSERSYDLTGLKPGTEYWVQIGGVKGGDWSKPLSAIFTT: 3.74e+06

I. CD71-binding FN3 domain of SEQ ID NO: 149 (designed binder) MSLPAPKNLVVSRVTEDSARLSWTAPDAAFDSFDIGYFELRYYGEAIVLTVPGSERSYDLTGLKPGTEYWVSIGGVKGGTYSAPLSAIFTT
II. CD71-binding FN3 domain of SEQ ID NO: 202 (designed binder) MSLPAPKNLVVSRVTEDSARLSWTAPDAAFDSFEIGYFENLYLGEAIVLTVPGSERSYDLTGLKPGTEYYVHIGGVKGGIWSSPLSAIFTT
Between I and II , whose measured RLU reads higher? Please respond with the label that marks your chosen entry.
I
